Reference for the values: patent US20180036405A1

molecular target: T1, human monomeric EGFR (EGFR.mmh) (human, UniProt P00533 25-647); experiment: SPR 37C, mAb captured by anti-human Fc, EGFR.mmh analyte
T1 construct: Soluble monomeric EGFR construct
value_type: kon (M⁻¹ s⁻¹)
Provide only the numeric value, understood in M⁻¹ s⁻¹.

stdin: Sample H1H116N (antibody, human IgG1, V domains shown, Tested in human IgG1 Fc format (H1H); also called H1M116N) VH: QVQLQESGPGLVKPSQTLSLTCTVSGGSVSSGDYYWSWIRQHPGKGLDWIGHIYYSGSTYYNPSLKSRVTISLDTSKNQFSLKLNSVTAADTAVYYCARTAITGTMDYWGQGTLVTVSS VL: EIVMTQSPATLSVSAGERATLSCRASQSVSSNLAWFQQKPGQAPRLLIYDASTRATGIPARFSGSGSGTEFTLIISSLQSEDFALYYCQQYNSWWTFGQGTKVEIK — what was its kon?
stdout: 539000
